Task for the reader: assign each of the following compounds its reported Selectivity index.
PROTOCOL_SUMMARY: Selectivity index as the ratio of CC50 to that of EC50 value in CEM cells
Assay type: functional, CCRF-CEM
The answer should be a number; do not append a unit.

q: // returns reported Selectivity index for input Cc1ccnc(N2C(=O)CSC2c2c(F)cccc2Cl)c1 (stereo not drawn)
a: 525

q: Recorded Selectivity index for Cc1cccc(N2C(=O)CSC2c2c(F)cccc2Cl)n1 (stereo not drawn) , please?
a: 1108

q: Form field: reported Selectivity index of c1ccc2[nH]c(-c3cscn3)nc2c1
a: 45

q: Returns the measured Selectivity index for the input compound. Input: Cc1ccc(N2C(=O)CSC2c2c(Cl)cccc2Cl)nc1 (stereo not drawn)
a: 24

q: Quick one: Selectivity index of O=C1CSC(c2c(Cl)cccc2Cl)N1c1ccc(Br)cn1 (stereo not drawn) ?
a: 20

q: Please look up its Selectivity index: O=C1CSC(c2c(F)cccc2Cl)N1c1ccccn1 (stereo not drawn)
a: 791

q: Quick one: Selectivity index for O=C1CSC(c2c(F)cccc2F)N1c1ccc(Cl)cn1 (stereo not drawn) ?
a: 11

q: Form field: reported Selectivity index of O=C1CSC(c2c(F)cccc2F)N1c1ccc(Br)cn1 (stereo not drawn)
a: 18

q: Quick one: Selectivity index for O=C1CSC(c2c(Cl)cccc2Cl)N1c1ccc(Cl)cn1 (stereo not drawn) ?
a: 17

###

Tested on: Human immunodeficiency virus 1
PROTOCOL_SUMMARY: Concentration required to reduced HIV-1-induced cytopathic effect by 50% in CEM cells
Format: functional, organism-based
CONDITION_PARAMETERS: Human immunodeficiency virus 1, CCRF-CEM
READOUT_LABEL: pEC50
Recall that pEC50 is obtained by taking minus log10 of the concentration measured in molar.

q: What value of pEC50 on Human immunodeficiency virus 1 does Cc1ccc(N2C(=O)CSC2c2c(Cl)cccc2Cl)nc1 (stereo unspecified) have?
a: 4.51

###

Kindly supply the reported CC50 values for the records listed here.
Tested on: Human immunodeficiency virus 1
PROTOCOL_SUMMARY: Cytotoxic concentration (anti-HIV activity) required to reduce […] by 50% in MT-4 cells
Type: functional
CONDITION_PARAMETERS: Human immunodeficiency virus 1, MT4

q: Notebook entry, Human immunodeficiency virus 1 assay: CC50 of Cc1cc(C)nc(N2C(=O)CSC2c2c(F)cccc2F)c1 (configuration not stated) = ?
a: 43.4 µM

q: Lab note: need CC50 for O=C1CSC(c2c(Cl)cccc2Cl)N1c1ccc(Cl)cn1 (configuration not stated) on Human immunodeficiency virus 1, anyone have it?
a: 19.2 µM

q: What measured CC50 is associated with Cc1ccnc(N2C(=O)CSC2c2c(F)cccc2F)c1 (configuration not stated) on Human immunodeficiency virus 1?
a: 242 µM

q: # get_value(readout= CC50, system= Human immunodeficiency virus 1) for Cc1cccnc1N1C(=O)CSC1c1c(Cl)cccc1Cl (configuration not stated)
a: 42.6 µM

q: Which CC50 is reported with Human immunodeficiency virus 1 for this entry: Cc1cccc(N2C(=O)CSC2c2c(F)cccc2F)n1 (configuration not stated) ?
a: 126 µM

q: Find the measured CC50: item O=C1CSC(c2c(F)cccc2Cl)N1c1cccc(Br)n1 (configuration not stated) , target or system Human immunodeficiency virus 1.
a: 30.7 µM

q: Provide value of CC50 for this record tested with Human immunodeficiency virus 1: Cc1ccnc(N2C(=O)CSC2c2c(F)cccc2Cl)c1 (configuration not stated)
a: 33.9 µM

###

Record form. Attribute: log10 IC50. Fill in for each entry.
TARGET_OR_SYSTEM: Human immunodeficiency virus type 1 reverse transcriptase (Human immunodeficiency virus 1, UniProt Q72547)
Response schema: value (number) is log10 of IC50 in units of µM.

q: Param item = c1ccc2[nH]c(-c3cscn3)nc2c1 [THIABENDAZOLE] ; retrieve measured log10 IC50.
a: 1.16

q: Form field: reported log10 IC50 of Cc1cccc(N2C(=O)CSC2c2c(Cl)cccc2Cl)n1 (stereo unspecified)
a: 0.35

q: Give its log10 IC50 value. Item: Cc1ccc(N2C(=O)CSC2c2c(Cl)cccc2Cl)nc1 (stereo unspecified)
a: 1.63

q: Dear colleague, I am looking for the recorded log10 IC50 of the following molecule: Cc1cccc(N2C(=O)CSC2c2c(F)cccc2Cl)n1 (stereo unspecified)
a: 0.45

q: Would you kindly share the measured log10 IC50 for Cc1cc(C)nc(N2C(=O)CSC2c2c(F)cccc2F)c1 (stereo unspecified) ?
a: 0.61

q: Need log10 IC50 of O=C1CSC(c2c(F)cccc2F)N1c1ccc(Cl)cn1 (stereo unspecified) , thanks.
a: 1.83

q: Query: log10 IC50; subject: O=C1CSC(c2c(F)cccc2F)N1c1ccc(Br)cn1 (stereo unspecified)
a: 1.79

q: Any idea what log10 IC50 was measured for Cc1ccnc(N2C(=O)CSC2c2c(F)cccc2Cl)c1 (stereo unspecified) ?
a: 0.61

q: Give the measured log10 IC50 of O=C1CSC(c2c(Cl)cccc2Cl)N1c1ccc(Br)cn1 (stereo unspecified) .
a: 1.75

q: Would you mind telling me what log10 IC50 value was observed for Cc1ccnc(N2C(=O)CSC2c2c(F)cccc2F)c1 (stereo unspecified) ?
a: 0.45

q: What value of measured log10 IC50 is listed for Cc1cccc(N2C(=O)CSC2c2c(F)cccc2F)n1 (stereo unspecified) ?
a: 0.46

###

Exercise: for every item that follows, state its recorded log10 of EC50.
Test system: Human immunodeficiency virus 1
PROTOCOL_SUMMARY: Effective concentration (anti-HIV activity) required to reduce HIV-1 induced cytopathic effect by 50%in CEM cells
Format: functional, organism-based
CONDITION_PARAMETERS: Human immunodeficiency virus 1, CCRF-CEM
Give log10 of EC50, with EC50 taken in nM.

q: Lab request: please report log10 of EC50 under test system Human immunodeficiency virus 1 for Cc1cccc(N2C(=O)CSC2c2c(F)cccc2Cl)n1 (stereo not drawn)
a: 1.60

q: What log10 of EC50 appears in the records for this compound with Human immunodeficiency virus 1? Cc1ccnc(N2C(=O)CSC2c2c(F)cccc2Cl)c1 (stereo not drawn)
a: 2.03

q: Request body: readout log10 of EC50, system Human immunodeficiency virus 1, query O=C1CSC(c2c(Cl)cccc2Cl)N1c1ccc(Cl)cn1 (stereo not drawn) . Return the value.
a: 3.27

q: Give the reported log10 of EC50 for Cc1cc(C)nc(N2C(=O)CSC2c2c(F)cccc2F)c1 (stereo not drawn) (system: Human immunodeficiency virus 1).
a: 1.89

q: Record O=C1CSC(c2c(Cl)cccc2Cl)N1c1ccc(Br)cn1 (stereo not drawn) : what is its log10 of EC50 with Human immunodeficiency virus 1?
a: 3.12

q: Find log10 of EC50 (Human immunodeficiency virus 1) for the entry Cc1cc(C)nc(N2C(=O)CSC2c2c(Cl)cccc2Cl)c1 (stereo not drawn)
a: 2.11

q: Form field - read-out: log10 of EC50; system: Human immunodeficiency virus 1; submitted item: c1ccc2[nH]c(-c3cscn3)nc2c1 [THIABENDAZOLE]
a: 3.04

q: Which measured log10 of EC50 belongs to O=C1CSC(c2c(F)cccc2F)N1c1cccc(Br)n1 (stereo not drawn) , tested on Human immunodeficiency virus 1?
a: 1.48

q: Provide the documented log10 of EC50 with Human immunodeficiency virus 1 as the system for O=C1CSC(c2c(F)cccc2F)N1c1ccc(Br)cn1 (stereo not drawn)
a: 3.40

q: Identify the measured log10 of EC50 of O=C1CSC(c2c(F)cccc2F)N1c1ccc(Cl)cn1 (stereo not drawn) for Human immunodeficiency virus 1.
a: 3.62

q: Can you look up log10 of EC50 on Human immunodeficiency virus 1 for Cc1ccc(N2C(=O)CSC2c2c(Cl)cccc2Cl)nc1 (stereo not drawn) ?
a: 3.12

q: Short answer please: log10 of EC50, Human immunodeficiency virus 1, entry O=C1CSC(c2c(F)cccc2Cl)N1c1ccccn1 (stereo not drawn)
a: 2.38

q: Fill in the recorded log10 of EC50 for this compound, with Human immunodeficiency virus 1 as test system: O=C1CSC(c2c(Cl)cccc2Cl)N1c1cccc(Br)n1 (stereo not drawn)
a: 2.24

###

System: Human immunodeficiency virus 1
PROTOCOL_SUMMARY: Anti-HIV-1 activity against mutant HIV-1 strain (103Lys-Asn) in CEM cells
Assay type: functional, organism-based
CONDITION_PARAMETERS: Human immunodeficiency virus 1, CCRF-CEM
READOUT_LABEL: EC50 (µM)
Entry rule: numbers only, all in µM.

q: Given the compound c1ccc2[nH]c(-c3cscn3)nc2c1 [THIABENDAZOLE] , what is its reported EC50?
a: 15.6

q: # get_value(readout='EC50', item= Cc1cccc(N2C(=O)CSC2c2c(F)cccc2F)n1 (centres undefined) )
a: 35.9

###

System: Human immunodeficiency virus 1
PROTOCOL_SUMMARY: Cytotoxic concentration (anti-HIV activity) required to reduce […] by 50% in MT-4 cells
Type: functional
CONDITION_PARAMETERS: Human immunodeficiency virus 1, MT4
# label = bin(measured CC50), where bins are small value: < 30 µM; mid value: ≥ 30 µM and < 40 µM; large value: ≥ 40 µM

q: Pick a category. Item: O=C1CSC(c2c(Cl)cccc2Cl)N1c1ccncc1 (configuration not stated)
a: small value

q: Form: Item = O=C1CSC(c2c(Cl)cccc2Cl)N1c1cccnc1 (configuration not stated) ; Class = ?
a: small value

q: Please let me know in which category the item c1ccc2[nH]c(-c3cscn3)nc2c1 belongs.
a: small value

q: Form: Item = O=C1CSC(c2c(F)cccc2F)N1c1ccc(Br)cn1 (configuration not stated) ; Class = ?
a: mid value

q: Input Cc1cccc(N2C(=O)CSC2c2c(Cl)cccc2Cl)n1 (configuration not stated) ; output its category
a: large value

q: Determine which band this compound sits in: O=C1CSC(c2c(Cl)cccc2Cl)N1c1ccccn1 (configuration not stated)
a: mid value

q: Form: Item = O=C1CSC(c2c(Cl)cccc2Cl)N1c1cccc(Br)n1 (configuration not stated) ; Class = ?
a: large value

q: In plain terms, what class is O=C1CSC(c2c(F)cccc2Cl)N1c1ccccn1 (configuration not stated) ?
a: large value

q: Band assignment needed for O=C1CSC(c2c(F)cccc2F)N1c1ccncc1 (configuration not stated) please.
a: mid value

q: Just checking, what class would you give Cc1cc(C)nc(N2C(=O)CSC2c2c(F)cccc2Cl)c1 (configuration not stated) here?
a: large value

All figures here come from ChEMBL document CHEMBL1135668.
